Entry source: patent US12378277B2

Entries and their pIC50
# assayed_system: Human-SGLT2 (Homo sapiens (Human), UniProt P31639)
# Sequence (P31639 whole entry): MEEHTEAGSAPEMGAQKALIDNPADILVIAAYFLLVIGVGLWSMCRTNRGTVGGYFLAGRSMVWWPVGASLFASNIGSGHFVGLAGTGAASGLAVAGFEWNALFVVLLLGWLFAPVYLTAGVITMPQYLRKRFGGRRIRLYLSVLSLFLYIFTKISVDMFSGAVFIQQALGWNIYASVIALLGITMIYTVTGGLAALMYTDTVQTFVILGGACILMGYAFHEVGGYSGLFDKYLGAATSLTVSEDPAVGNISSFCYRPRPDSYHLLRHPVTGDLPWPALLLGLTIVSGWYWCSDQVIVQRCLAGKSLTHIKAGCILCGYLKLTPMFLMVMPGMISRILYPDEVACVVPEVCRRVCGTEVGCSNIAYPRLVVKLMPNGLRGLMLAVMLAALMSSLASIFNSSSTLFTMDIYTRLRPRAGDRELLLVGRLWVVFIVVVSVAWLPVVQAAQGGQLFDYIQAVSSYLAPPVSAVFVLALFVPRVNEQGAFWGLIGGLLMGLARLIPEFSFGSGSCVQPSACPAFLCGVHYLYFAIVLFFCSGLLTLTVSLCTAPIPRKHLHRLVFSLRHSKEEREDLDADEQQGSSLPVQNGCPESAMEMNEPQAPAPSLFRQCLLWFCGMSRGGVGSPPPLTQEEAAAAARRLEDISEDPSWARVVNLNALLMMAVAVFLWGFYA
# protocol_details: SGLT2 glucose transport test
# Format: cell-based
# run_conditions: cells stably expressing Human-SGLT2; [14C]-labeled methyl α-D-glucopyranoside uptake, 37° C., 2 hours
Formally, pIC50 is defined as -log10 of the concentration c, with c in mol/L.

Task: API: value(readout= pIC50, system= Human-SGLT2 (Homo sapiens (Human), UniProt P31639), query= CS[C@H]1O[C@@H](c2ccc(C(C)C)c(Cc3ccc(O[C@@H]4CCN([C@H]5CO[C@H](c6cc(F)ccc6F)[C@@H](N)C5)C4)cc3)c2)[C@H](O)[C@@H](O)[C@@H]1O [WXD012] )
Output: 8.21

Task: API: value(readout= pIC50, system= Human-SGLT2 (Homo sapiens (Human), UniProt P31639), query= CCc1ccc([C@@H]2O[C@H](SC)[C@@H](O)[C@H](O)[C@H]2O)cc1Cc1ccc(O[C@@H]2CCN([C@H]3CO[C@H](c4cc(F)ccc4F)[C@@H](N)C3)C2)c(C)c1 [WXD011] )
Output: 7.99

Task: API: value(readout= pIC50, system= Human-SGLT2 (Homo sapiens (Human), UniProt P31639), query= CCc1ccc([C@@H]2O[C@H](SC)[C@@H](O)[C@H](O)[C@H]2O)cc1Cc1ccc(O[C@@H]2CCN([C@H]3CO[C@H](c4cc(F)ccc4F)[C@@H](N)C3)C2)c(C)c1 [WXD010] )
Output: 7.67

New cases:
Task: API: value(readout= pIC50, system= Human-SGLT2 (Homo sapiens (Human), UniProt P31639), query= CCc1ccc([C@@H]2O[C@H](SC)[C@@H](O)[C@H](O)[C@H]2O)cc1Cc1ccc(OC2CCN(C3CO[C@H](c4cc(F)ccc4F)[C@@H](N)C3)CC2)cc1 (stereo partly shown) [WXD007] )
Output: 8.84

---

# assayed_system: Human-SGLT1 (Homo sapiens (Human))
# Sequence (P13866 whole entry): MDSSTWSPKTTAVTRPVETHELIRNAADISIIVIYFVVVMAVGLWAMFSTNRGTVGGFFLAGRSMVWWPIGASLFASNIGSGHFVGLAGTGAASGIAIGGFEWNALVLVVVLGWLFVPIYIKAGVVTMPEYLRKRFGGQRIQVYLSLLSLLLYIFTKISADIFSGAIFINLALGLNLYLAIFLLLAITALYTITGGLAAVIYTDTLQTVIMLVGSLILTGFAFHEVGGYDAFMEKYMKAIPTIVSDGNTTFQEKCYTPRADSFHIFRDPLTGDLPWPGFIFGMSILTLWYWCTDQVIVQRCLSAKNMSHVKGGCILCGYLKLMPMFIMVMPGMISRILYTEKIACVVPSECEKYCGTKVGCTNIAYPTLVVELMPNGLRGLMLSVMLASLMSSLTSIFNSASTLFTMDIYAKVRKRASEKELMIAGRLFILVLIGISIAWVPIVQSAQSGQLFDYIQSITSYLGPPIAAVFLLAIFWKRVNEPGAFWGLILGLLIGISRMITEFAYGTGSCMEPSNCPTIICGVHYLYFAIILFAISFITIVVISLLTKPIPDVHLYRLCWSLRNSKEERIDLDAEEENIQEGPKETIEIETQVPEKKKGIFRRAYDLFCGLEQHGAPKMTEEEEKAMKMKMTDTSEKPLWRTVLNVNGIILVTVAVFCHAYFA
# protocol_details: SGLT1 glucose transport test
# run_conditions: cells stably expressing Human-SGLT1; [14C]-labeled methyl α-D-glucopyranoside uptake, 37° C., 2 hours
property_measured: IC50 (nM)
Respond with the bare value in nM.

Task: Dear colleague, I am looking for the recorded IC50 of the following molecule: CS[C@H]1O[C@@H](c2ccc(C(C)C)c(Cc3ccc(O[C@@H]4CCN([C@H]5CO[C@H](c6cc(F)ccc6F)[C@@H](N)C5)C4)cc3)c2)[C@H](O)[C@@H](O)[C@@H]1O
Output: 11.2

Task: Dear colleague, I am looking for the recorded IC50 of the following molecule: CCc1ccc([C@@H]2O[C@H](SC)[C@@H](O)[C@H](O)[C@H]2O)cc1Cc1ccc(O[C@@H]2CCN([C@H]3CO[C@H](c4cc(F)ccc4F)[C@@H](N)C3)C2)c(C)c1 [WXD011]
Output: 44.9

Task: Dear colleague, I am looking for the recorded IC50 of the following molecule: CCc1ccc([C@@H]2O[C@H](SC)[C@@H](O)[C@H](O)[C@H]2O)cc1Cc1ccc(OC2CCN(C3CO[C@H](c4cc(F)ccc4F)[C@@H](N)C3)CC2)cc1 (stereo partly shown)
Output: 3.37

Continue with the molecule presented below.
Task: Dear colleague, I am looking for the recorded IC50 of the following molecule: CCc1ccc([C@@H]2O[C@H](SC)[C@@H](O)[C@H](O)[C@H]2O)cc1Cc1ccc(O[C@@H]2CCN([C@H]3CO[C@H](c4cc(F)ccc4F)[C@@H](N)C3)C2)c(C)c1 [WXD010]
Output: 144
